Experiment Summary: Residual fluorescent intensity after artificial light exposure (ASTM G 154-06 Cycle 1)
Format: physicochemical
Reported Property: The remaining fluorescence intensity (after artificial light exposure) Coating (10%)
Return type: number; implicit unit %.

Observe how each entry below is paired with its result.
1) O=c1[nH]c(-c2c(O)cccc2Cl)nc2ccccc12 | 60
2) O=c1[nH]c(-c2ccc(Cl)cc2O)nc2ccccc12 | 60

Continue with the next compound.
Query "O=c1[nH]c(-c2cccc(Cl)c2O)nc2ccccc12" yields The remaining fluorescence intensity (after artificial light exposure) Coating (10%) of 60
